Target: T1, human galectin-10-His (recombinant human galectin-10 with TEV-cleavable N-terminal His-tag) (human)
T1 construct: SEC-MALLS: dimer in solution; also called Gal10-His; humanGal10-His
T1 chain: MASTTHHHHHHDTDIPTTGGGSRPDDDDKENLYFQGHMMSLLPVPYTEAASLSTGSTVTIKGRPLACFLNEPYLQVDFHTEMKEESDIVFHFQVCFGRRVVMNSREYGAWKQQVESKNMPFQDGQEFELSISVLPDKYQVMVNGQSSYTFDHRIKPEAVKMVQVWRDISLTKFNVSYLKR
Test: BLI Octet RED96, galectin-10-His on anti-Penta-His tips, scFv periplasmic extract 1/10
readout.label: koff (s⁻¹)
Report the value in s⁻¹ with no unit label.

binder	reported.measurement
scFv 6A08 (periplasmic extract, Myc-tagged) (scFv, not shown: small tags and cut ends) scFv: QVQLVESGGGLVQPGGSLRLSCAASGFTFSSYAMSWVRQAPGKGPEWVSAINRGGGSTYYADSVKGRFTISRDNAKNTLYLQMNSLKPEDAAVYYCATPGDRLWYYRYDYWGQGAQVTVSSGGGGSGGGGSGGGGSQTVVTQEPSLSVSPGGTVTLTCGLSSGSVTSSNYPGWYQQTPGQAPRLLIYNTNSRYSGVPNRFSGSISGNKAALIISGAQPEDEADYHCALNRVRGTYRVFGGGTHLTVL	0.0082
scFv 4E08 (periplasmic extract, Myc-tagged) (scFv, not shown: small tags and cut ends, also called 4E8) scFv: QVQRQESGPGLVKPSQTLSLTCTVSGGSITTSYYAWSWIRQPPGKGLEWMGVIASDGSTYYSPSLKSRTSISRDTSKNQFSLQLSSVTPEDTAVYYCALYIRGSSWSGWSAYDYWGQGTQVTVSSGGGGSGGGGSGGGGSQPVLNQPSAVSVSLGQTARITCQGGNFGYYYGSWYQQKPGQAPVLVIYKDSERPSGIPERFSGSSSGGTATLTISRAQAEDEADYYCQSADSSDNPVFGGGTHLTVL	0.0094

Next:
Ask: Dear colleague, I am looking for the recorded koff of the following binder: scFv 1D11 (periplasmic extract, Myc-tagged) (scFv, not shown: small tags and cut ends, also called 1D011) scFv: QVQLVESGGGLVQPGGSLRLSCAASGFTFDDYAMSWVRQAPGKGLEWVSGISWNGGSTYYAESMKGRFTISRDNAKNTLYLQMNSLKSEDTAVYYCAKDRNLGYRLGYPYDYWGQGTQVTVSSGGGGSGGGGSGGGGSQSVLTQPPSVSGSPGETVTISCAGTSSDVGYGNYVSWYQQLPGMAPRLLIYEVNKRASGITDRFSGSKSGNTASLTISGLQSEDEGDYYCASYRSSNNAVFGGGTHLTVL
Reply: 0.0052
